test system: 786-0; test: NCI tumour cell line growth inhibition, 48 h
The source made the active and inactive calls. Rule as the data show it: active = GI50 up to about 1.1 µM and inactive = higher.
Outcome codes: active, inactive

INSERT INTO results (compound, discrete_label) VALUES
  ('C#CCN(C(=O)C(F)(F)F)c1ccc(C(=O)c2ccc(N(CC#C)C(=O)C(F)(F)F)cc2)cc1', 'inactive'),
  ('CN(C(=O)c1ccc2c(c1)sc1c(=O)n(C)c3ccccc3c12)c1ccccc1', 'inactive'),
  ('BrC1=C(Br)C2(SCCS2)[C@H]2C[C@@H]1c1ccccc12', 'inactive'),
  ('CCOC(=O)C1=C(Cl)c2cccnc2C1=O', 'inactive'),
  ('Cc1cc(S(=O)(=O)Nc2nc(N)nc(N3N=CCC3C)n2)c(S)cc1Cl (centres undefined)', 'inactive'),
  ('COc1cccc(C2c3cc4c(cc3OC(NNc3ccccc3)C2C)OCO4)c1O (centres undefined)', 'inactive'),
  ('Cc1ccc(C)n2c1nc1ccc3ccccc3c12', 'inactive'),
  ('CCOC(=O)C1=C(Nc2ccc(Br)cc2)OC/C1=N\NC(=O)c1ccccc1O', 'inactive'),
  ('CCOC(=O)c1ccc(/N=C2/C(=S)N(c3ccc(C(=O)OCC)cc3)C(=N)N2/N=C/c2ccccc2)cc1', 'inactive'),
  ('C(=N/c1ccccc1C1SCCCS1)/c1ccccc1', 'inactive'),
  ('COc1ccc2nc(N/N=C/c3sccc3C)cc(C)c2c1', 'inactive'),
  ('Cn1c(=O)c2[nH]c(CCC(=O)O)nc2n(C)c1=O', 'inactive'),
  ('CCOc1ccc(NC(=O)CC2SC(Nc3ccc(C)cc3C)=NC2=O)cc1 (centres undefined)', 'inactive'),
  ('Cc1ccc(C(=O)O)cc1S(=O)(=O)Nn1cnc2ccc(S(=O)(=O)Nc3ccccc3C(=O)O)cc2c1=O', 'inactive'),
  ('N#CC(c1ccccc1)N(CCCCCCN(C(=O)c1ccccc1)C(C#N)c1ccccc1)C(=O)c1ccccc1 (centres undefined)', 'inactive'),
  ('O=C1/C(=C/c2ccc(O)c(O)c2)CCC/C1=C\c1ccc(O)c(O)c1', 'inactive'),
  ('O=[N+]([O-])c1ccc(C2c3c(O)nc(O)nc3Oc3nc(O)nc(O)c32)cc1', 'inactive'),
  ('S=C(N/N=C/c1ccccn1)Nc1ccc(Cl)cc1', 'active'),
  ('c1ccc(N/N=C2\CC(c3ccccc3)Oc3ccccc32)cc1 (centres undefined)', 'inactive'),
  ('CCC12C=CCN3CCC4(C(=C(C(=O)OC)C1)Nc1ccccc14)[C@H]32 (some centres undefined)', 'inactive'),
  ('C[C@]12CC[C@@H]3c4cc(OCC(F)(F)F)c(O)cc4C(=O)C[C@H]3[C@@H]1CC[C@@H]2O', 'inactive'),
  ('COc1ccc(OC)c2c3c(ccc12)C(c1ccccc1)OC3=O (centres undefined)', 'inactive'),
  ('COc1c2c(c(O)c3c4c(c(C)cc13)C1OC3(C(OC)OC5CC(C)(O)C(OC6CC(C)(O)C(O)C(C)O6)C(C)O5)OC1C(OC)(O4)C31CO1)C(=O)C(O)CC2OC1CC(C)(O)C(OC(C)=O)C(C)O1 (centres undefined)', 'active'),
  ('O=C(Nc1cc(Cl)c(Cl)cc1Cl)C(=O)C1C=CCS1(=O)=O (centres undefined)', 'inactive'),
  ('S=C(N/N=C(\C(=N/NC(=S)N1CCCCC1)c1ccccn1)c1ccccn1)N1CCCCC1', 'inactive'),
  ('CC(=O)[C@]12OC(=O)C3=C1[C@H](CC[C@@H]3C)[C@@H](C)C[C@H]2C=C(C)C', 'inactive'),
  ('COc1ccc(-c2nc(N)nc(-c3cc(C)ccc3O)c2Cl)cc1', 'inactive'),
  ('CC(=O)OC1OC(c2ccoc2)C[C@@]12C1CCC3O[C@]3(C)[C@]1(C)C[C@H](OC(C)=O)[C@H]2C (some centres undefined)', 'inactive'),
  ('Cc1nc2ccc(Cl)cc2c(Cl)c1CCCl', 'inactive'),
  ('NC(=S)N/C=C1\C(=O)Oc2ccccc2C1=O', 'inactive'),
  ('N#CC(C#N)=C(N)/C(C#N)=C/c1ccc2[nH]ccc2c1', 'inactive'),
  ('COC(=O)C1CCc2c1c(=O)n1c([nH]c3ccccc31)c2C#N (centres undefined)', 'inactive'),
  ('CC1(C)SC2C(C(=O)O)N=C(Cc3ccccc3)N2C1C(=O)O (centres undefined)', 'inactive'),
  ('CCSc1n/c(=C\c2ccco2)c2nncn12', 'inactive'),
  ('CCOC(=O)C1(C(=O)OCC)CCCN1C(=O)[C@H](CNC(=O)OC(C)(C)C)NC(=O)OCc1ccccc1', 'inactive'),
  ('C[C@H]1CCC/C=C/[C@@H]2C[C@H](OC(=O)CN(C)C)C[C@H]2[C@H](O)/C=C/C(=O)O1', 'active'),
  ('C=CCC1(c2ccc(OC)cc2)C=CC(=O)CC1 (centres undefined)', 'inactive'),
  ('CCOC(=O)[C@H](CCCNC(=O)OC(C)(C)C)NCc1ccc(OC)c(OC)c1', 'inactive'),
  ('COc1cccc2c1C(=O)c1c(O)c3c(c(O)c1C2=O)C[C@@](O)(C(C)=O)C[C@@H]3OC1CC(N(Cc2ccccc2)Cc2ccccc2)C(O)C(C)O1 (some centres undefined)', 'active');
